test: Vapour sorption analysis (GVS, hygroscopicity); format: physicochemical; conditions: % uptake at 90% RH
MEASURE NAME: GVS (Hygroscopicity) (%)

compound="C=CC(=O)Nc1cc(Nc2ncc(C(=O)OC(C)C)c(-c3cn(C)c4ccccc34)n2)c(OC)cc1N(C)CCN(C)C.Cl [HCl]" measure_name="GVS (Hygroscopicity)" measurement_unit=% value_reported=10.
compound="C=CC(=O)Nc1cc(Nc2ncc(C(=O)OC(C)C)c(-c3cn(C)c4ccccc34)n2)c(OC)cc1N(C)CCN(C)C.O=S(=O)(O)O [Sulfate]" measure_name="GVS (Hygroscopicity)" measurement_unit=% value_reported=11
compound="C=CC(=O)Nc1cc(Nc2ncc(C(=O)OC(C)C)c(-c3cn(C)c4ccccc34)n2)c(OC)cc1N(C)CCN(C)C [Free Base]" measure_name="GVS (Hygroscopicity)" measurement_unit=% value_reported=0.3
compound="C=CC(=O)Nc1cc(Nc2ncc(C(=O)OC(C)C)c(-c3cn(C)c4ccccc34)n2)c(OC)cc1N(C)CCN(C)C.O=C(O)/C=C/C(=O)O [Fumarate]" measure_name="GVS (Hygroscopicity)" measurement_unit=% value_reported=2.0

---

assay: Thermodynamic aqueous solubility studies (de-ionized water, 24 h, HPLC concentration, filtrate pH, XRPD of solid); details: pH of filtrate after 24 h slurry in de-ionized water (pH 6.97), ambient temperature
Some molecules, each annotated with its measured pH at Saturation.
MEASURE NAME: pH at Saturation

molecule="C=CC(=O)Nc1cc(Nc2ncc(C(=O)OC(C)C)c(-c3cn(C)c4ccccc34)n2)c(OC)cc1N(C)CCN(C)C [Free Base]" measure_name="pH at Saturation" value_reported=7.81
molecule="C=CC(=O)Nc1cc(Nc2ncc(C(=O)OC(C)C)c(-c3cn(C)c4ccccc34)n2)c(OC)cc1N(C)CCN(C)C.CS(=O)(=O)O [Mesylate]" measure_name="pH at Saturation" value_reported=2.90
molecule="C=CC(=O)Nc1cc(Nc2ncc(C(=O)OC(C)C)c(-c3cn(C)c4ccccc34)n2)c(OC)cc1N(C)CCN(C)C.O=C(O)C(=O)O [Oxalate]" measure_name="pH at Saturation" value_reported=3.00
molecule="C=CC(=O)Nc1cc(Nc2ncc(C(=O)OC(C)C)c(-c3cn(C)c4ccccc34)n2)c(OC)cc1N(C)CCN(C)C.Cl [HCl]" measure_name="pH at Saturation" value_reported=6.47
molecule="Br.C=CC(=O)Nc1cc(Nc2ncc(C(=O)OC(C)C)c(-c3cn(C)c4ccccc34)n2)c(OC)cc1N(C)CCN(C)C [HBr]" measure_name="pH at Saturation" value_reported=6.30
molecule="C=CC(=O)Nc1cc(Nc2ncc(C(=O)OC(C)C)c(-c3cn(C)c4ccccc34)n2)c(OC)cc1N(C)CCN(C)C.Cc1ccc(S(=O)(=O)O)cc1 [Tosylate]" measure_name="pH at Saturation" value_reported=6.38
molecule="C=CC(=O)Nc1cc(Nc2ncc(C(=O)OC(C)C)c(-c3cn(C)c4ccccc34)n2)c(OC)cc1N(C)CCN(C)C.O=C(O)/C=C/C(=O)O [Fumarate]" measure_name="pH at Saturation" value_reported=3.98
molecule="C=CC(=O)Nc1cc(Nc2ncc(C(=O)OC(C)C)c(-c3cn(C)c4ccccc34)n2)c(OC)cc1N(C)CCN(C)C.O=S(=O)(O)O [Sulfate]" measure_name="pH at Saturation" value_reported=2.19
